Test: Antioxidant activity assessed as superoxide radical scavenging activity after 20 mins by NBT reduction assay
Type: functional
For each record, check the reported IC50: if it is below 40 µg/mL write criterion met, else write criterion not met.

Reference set, count: 4
O=c1cc(-c2ccc(O)cc2)oc2cc(O)cc(O)c12: criterion not met
O=C(/C=C/C=C/c1ccc(O)cc1)CCc1ccc(O)cc1: criterion not met
O=C1O[C@H]([C@@H](O)CO)C(O)=C1O: criterion met
COc1cc(CC[C@@H](O)C[C@H](O)CCc2ccc(O)c(OC)c2)ccc1O: criterion not met

Criterion: IC50 strictly below 40 µg/mL. Is it met by COc1cc(CCc2cc(O)cc(O)c2)ccc1O ? criterion not met

Criterion: IC50 strictly below 40 µg/mL. Is it met by COc1cc(/C=C/C=C/C(=O)CCc2ccc(O)cc2)ccc1O ? criterion met
